Origin of values: ChEMBL document CHEMBL1133005

assay explanation: Evaluated for ionization constant (pKa3) by titrations performed in the presence of EtOH at a dielectric constant of 63
Format: physicochemical
experimental parameters: EtOH cosolvent; read-out: pKa3
property: pKa
Hey, just send me the number, nothing else.

Record request: pKa value, item CCOC(=O)CN(CCN(CC(=O)[O-])Cc1ccccc1O)Cc1ccccc1O.[Na+] 7.5

====

assay explanation: Evaluated for ionization constant (pKa2) by titrations performed in presence of a MeOH and at a dielectric constant of 56
Assay type: physicochemical
experimental parameters: MeOH cosolvent, dielectric constant 56; read-out: pKa2
property: pKa
Hey, just send me the number, nothing else.

Record request: pKa value, item COC(=O)CN(CCN(CC(=O)OC)Cc1ccccc1O)Cc1ccccc1O 11.6
